All figures here come from patent US9938274B1.

assay: In vivo pharmacokinetic study in rats; details: rat, plasma, iv, 1 mg/kg i.v., read-out: Vz
observable: Vd (L/kg)
Numeric only. Scale: L/kg

molecule: CC(C)(O)COc1ccc2c(Oc3ccc(Nc4nccc5[nH]cc(-c6ccc(F)cc6)c(=O)c45)cc3F)ccnc2c1
unitTag: L/kg
Vd: 0.47

We now examine a further molecule.
Looking up O=c1c(-c2ccc(F)cc2)c[nH]c2ccnc(Nc3ccc(Oc4ccnc5cc(OCCO)ccc45)c(F)c3)c12 [Comparative compound C, reference compound] , I found its Vd recorded as 1.21

====

target: c-Met (h) (Homo sapiens (Human), UniProt P08581); test: HTRF KinEASE TK kinase inhibition assay, c-Met; type: biochemical
Sequence (P08581 25-1390): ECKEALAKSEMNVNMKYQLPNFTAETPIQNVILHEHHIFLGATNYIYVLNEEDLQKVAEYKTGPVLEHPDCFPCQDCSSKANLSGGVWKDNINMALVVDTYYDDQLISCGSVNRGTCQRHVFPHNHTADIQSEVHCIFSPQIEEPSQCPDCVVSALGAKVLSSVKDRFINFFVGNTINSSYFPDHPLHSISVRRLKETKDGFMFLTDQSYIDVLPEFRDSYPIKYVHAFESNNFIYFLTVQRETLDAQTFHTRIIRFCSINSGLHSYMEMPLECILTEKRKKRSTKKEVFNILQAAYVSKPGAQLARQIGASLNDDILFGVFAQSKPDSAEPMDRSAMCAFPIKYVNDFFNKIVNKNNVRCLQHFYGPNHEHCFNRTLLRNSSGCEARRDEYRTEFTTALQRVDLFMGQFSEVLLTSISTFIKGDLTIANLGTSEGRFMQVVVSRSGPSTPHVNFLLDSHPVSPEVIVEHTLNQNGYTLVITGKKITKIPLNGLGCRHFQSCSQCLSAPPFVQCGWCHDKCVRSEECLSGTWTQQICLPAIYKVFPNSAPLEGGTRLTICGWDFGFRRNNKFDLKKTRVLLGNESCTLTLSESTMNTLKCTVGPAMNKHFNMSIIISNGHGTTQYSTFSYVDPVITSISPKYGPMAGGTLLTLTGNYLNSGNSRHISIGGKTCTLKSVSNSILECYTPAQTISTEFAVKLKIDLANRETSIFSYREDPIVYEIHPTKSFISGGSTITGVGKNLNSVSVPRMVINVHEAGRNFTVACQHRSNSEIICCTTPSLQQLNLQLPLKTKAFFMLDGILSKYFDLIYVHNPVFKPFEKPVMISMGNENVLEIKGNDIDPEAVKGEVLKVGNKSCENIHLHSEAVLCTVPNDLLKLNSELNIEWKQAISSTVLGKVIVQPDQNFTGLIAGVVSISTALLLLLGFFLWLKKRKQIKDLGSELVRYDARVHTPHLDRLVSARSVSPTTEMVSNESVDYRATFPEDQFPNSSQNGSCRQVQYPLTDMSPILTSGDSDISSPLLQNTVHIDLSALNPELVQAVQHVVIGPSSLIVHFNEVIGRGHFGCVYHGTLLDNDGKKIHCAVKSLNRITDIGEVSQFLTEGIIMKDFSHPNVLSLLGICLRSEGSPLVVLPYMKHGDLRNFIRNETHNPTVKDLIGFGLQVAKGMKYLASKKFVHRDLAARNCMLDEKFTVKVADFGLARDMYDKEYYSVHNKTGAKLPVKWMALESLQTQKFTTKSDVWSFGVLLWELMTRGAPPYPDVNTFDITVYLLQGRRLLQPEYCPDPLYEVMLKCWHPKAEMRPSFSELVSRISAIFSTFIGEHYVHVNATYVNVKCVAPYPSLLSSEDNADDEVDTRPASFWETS
observable: IC50 (nM)

Solved entries (count: 4):
compound: COCCn1cc(-c2ccc(F)cc2)c(=O)c2c(Nc3ccc(Oc4ccnc5cc(OCC(C)(C)O)ccc45)c(F)c3)nccc21 [Example 16]
unitTag: nM
IC50: 14.4

compound: CC(C)(O)COc1ccc2c(Oc3ccc(Nc4nccc5c4c(=O)c(-c4ccc(F)cc4)cn5Cc4ccccc4)cc3F)ccnc2c1 [Example 18]
unitTag: nM
IC50: 40.3

compound: COc1cc2c(Oc3ccc(Nc4nccc5[nH]cc(-c6ccc(F)cc6)c(=O)c45)cc3F)ccnc2cc1OCC(C)O (stereo not shown) [Example 2]
unitTag: nM
IC50: 15.6

compound: COc1cc2c(Oc3ccc(Nc4nccc5[nH]cc(-c6ccc(F)cc6)c(=O)c45)cc3F)ccnc2cc1OCC(C)(C)O [Example 1]
unitTag: nM
IC50: 19.4

a: CC(C)(O)COc1ccc2c(Oc3ccc(Nc4nccc5c4c(=O)c(-c4ccc(F)cc4)cn5C4CC4)cc3F)ccnc2c1 [Example 14]
b: CC(C)(O)COc1ccc2c(Oc3ccc(Nc4nccc5c4c(=O)c(-c4ccc(F)cc4)cn5CCO)cc3F)ccnc2c1 [Example 17]
Enquiry: Lowest IC50? choose a or b // caller expects the label of the chosen entry
Return: a
(a: 14.3 nM, b: 40 nM)
